# Procedure Summary: qHTS drug screen for cell cycle checkpoint inhibitors in PARPi-resistant BRCA-mutant ovarian cancer cell lines. (AID 1963452)
# Condition Description: PEO1/OlaR viability, CellTiter-Glo luminescence, 96 h; measured here: PEO4 Z-AUC; stronger effect = lower value
Form field: Z-AUC (one value per entry).

The examples below pair each entry with its known result.
Cc1c(F)cc(C(=O)NC2CC2)cc1-c1c(F)cn2c(C(C)(C)C)nnc2c1F | 1.81
CC(C)c1c2cc(-c3ccnc(NC4CCC(NC5CCOCC5)CC4)n3)ccc2nn1C (stereo not drawn) | -1.88
CC(C)c1cc(CNc2nc(Nc3cc(C4CC4)[nH]n3)cc(N3CCN(C)CC3)n2)on1 | -2.1
CCNCc1nc2c(N)nc3ccccc3c2n1CC(C)(C)O | 0.404
CNCc1ccc(-c2cc(-c3nc(-c4ccc(S(=O)(=O)C(C)C)cc4)cnc3N)on2)cc1 | 0.605
Cc1cc(Nc2cc(N3CCN(C)CC3)nc(/C=C/c3ccccc3)n2)n[nH]1 | -1.32

Qu. Entry "Cc1[nH]nc(C(F)(F)F)c1Cc1sc2c(c1C(=O)N1C[C@](C)(O)CO1)c(=O)n(C)c(=O)n2C(C)C" has what Z-AUC?
Ans. 0.623

Qu. Same thing, different compound: "CCN1CCN(Cc2ccc(NC(=O)c3ccc(C)c(/C=C/c4cnc5[nH]ccc5c4OC)c3)cc2C(F)(F)F)CC1"
Ans. -1.42

Qu. Now the same for "CN1CCN(c2ccc(C(=O)Nc3n[nH]c4ccc(Cc5cc(F)cc(F)c5)cc34)c(NC3CCOCC3)c2)CC1"
Ans. -1.38

Qu. Same for "CCOCc1nc2c(N)nc3ccccc3c2n1CC(C)(C)O"
Ans. -0.947

----------
Each entry below carries its recorded Potency.
# System: HEK293
# Procedure Summary: Cytotoxic Profiling of Annotated Libraries Using Quantitative High-Throughput Screening (AID 1296008); further: potency means the concentration at half of the fitted maximal effect; nearly all actives have a fitted effect of over 60% in size
# Condition Description: Five cell lines viability, CellTiter-Glo ATP luminescence, 48-72 h
Inconclusive results are not listed. The source made the active and inactive calls. Calls follow the shape of the dose curve; as a rule, active = well fitted inhibition curve with a large enough effect; inconclusive = small, poorly fitted or top-dose-only effect; inactive = flat fitted curve, though single readings scatter.

CC(C)c1nc(-c2ccc(NC(=O)Nc3cccc(C(F)(F)F)c3)c3ccccc23)c2c(N)nccn12 | 6.51 µM (active)
CC(Oc1cc(-n2cnc3ccc(CN4CCN(C)CC4)cc32)sc1C(N)=O)c1ccccc1C(F)(F)F (centres undefined) | 1.3 µM (active)

Qu. Which Potency reading was recorded for the compound "CC(C)(C)Nc1nc2cc(Cl)c(Cl)cc2nc1S(C)(=O)=O" ?
Ans. 4.11 µM (active)

Qu. Input "CC(C)[C@@H](CS(=O)(=O)C(C)C)N1C(=O)[C@@](C)(CC(=O)O)C[C@H](c2cccc(Cl)c2)[C@H]1c1ccc(Cl)cc1"
Ans. 16.6 µM (active)

----------
# Tested on: OV90
# Procedure Summary: Primary qHTS to identify gynecologic anti-cancer compounds using libraries of approved drugs and bioactive compounds (AID 1345084); further: nearly all actives have a fitted effect of over 55% in size
# Condition Description: Gynecologic cancer cell panel viability, ATPlite luminescence, 48 h; series mostly up to 57.5 µM
Records with an inconclusive call do not appear. Calls of active or inactive are those of the source. Calls come from the whole dose curve; as a rule, active = well fitted cell-killing curve with a large enough effect; inconclusive = small, poorly fitted or top-dose-only effect, or effect the other way; inactive = flat fitted curve, though single readings scatter.
Recorded Endpoint: activity change, negative = cytotoxicity

Consider the reported activity change, negative = cytotoxicity for these compounds:
COc1cc2occc2c(O[C@@H]2O[C@H](CO)[C@@H](O)[C@H](O)[C@H]2O)c1CCC(=O)O | inactive
COc1ccc(-n2[nH]c(=O)c3[nH]c4cc(Cl)ccc4c(=O)c3c2=O)c(C)c1 | inactive
CN(CCc1ccc(Nc2ncc(-c3cccnc3)s2)cc1)Cc1ccccc1 | inactive
CC(=O)O[C@@H]1C[C@@H](OC(C)=O)C(C)(C)/C=C/[C@H](C)[C@H](OC(C)=O)[C@@]2(O)C[C@H](C)[C@H](OC(=O)c3ccccc3)[C@@H]2/C=C/1C | inactive
CC(=O)/C=C/[C@H]1[C@](C)(O)[C@@H](O)[C@H](OC(C)=O)C2C(C)(C)CCC[C@@]21C (stereo partly drawn) | inactive

Now for the compound whose activity change, negative = cytotoxicity we want.
Qu. Name the recorded activity change, negative = cytotoxicity for "COC(=O)c1ccccc1O[C@@H]1O[C@H](CO)[C@@H](O)[C@H](O)[C@H]1O[C@@H]1O[C@@H](C)[C@H](O)[C@@H](O)[C@H]1O" .
Ans. inactive
